The reported numbers originate from paper PMC6018403.

# assayProtocol: Multi-component pharmacokinetic study of GQD, GQD-GC and single herb extracts in rats (plasma, LC/MS/MS)
# Type: in vivo, Sprague-Dawley rats
# measurementContext: male, Sprague-Dawley, rat, plasma, po, 18.9 g/kg; GQD group: rats, oral GQD 18.9 g/kg (1.5-fold of clinical dosage), plasma; read-out: AUClast
# Description: Male Sprague-Dawley rats (220–250 g) were used for PK study, and the details were described in Supplemental Data. All procedures were in accordance with the National Institutes of Health Guide for the Care and Use of Laboratory Animals. […] A Finnigan TSQ Quantum triple quadrupole mass spectrometer was connected to a Surveyor HPLC via ESI interface (ThermoFisher). […] Analytes were detected in the selected reaction monitoring (SRM) mode. […]
measuredEndpoint: AUC(0-t)

Q) # query: AUC(0-t) of entry COc1cc2c(cc1O)CC[n+]1cc3c(OC)c(OC)ccc3cc1-2
A) > 100 ng·h/mL

Q) What AUC(0-t) value was documented for this molecule, COc1ccc(-c2coc3cc(O[C@@H]4O[C@H](CO)[C@@H](O)[C@H](O)[C@H]4O)ccc3c2=O)cc1 ?
A) > 300 ng·h/mL

// next item, AUC(0-t) requested
Q) Consider the molecule CC1(C)[C@@H](O[C@H]2O[C@H](C(=O)O)[C@@H](O)[C@H](O)[C@H]2O[C@@H]2O[C@H](C(=O)O)[C@@H](O)[C@H](O)[C@H]2O)CC[C@]2(C)[C@H]3C(=O)C=C4[C@@H]5C[C@@](C)(C(=O)O)CC[C@]5(C)CC[C@@]4(C)[C@]3(C)CC[C@@H]12 and give its measured AUC(0-t).
A) 871 ng·h/mL

====

# assayProtocol: Multi-component pharmacokinetic study of GQD, GQD-GC and single herb extracts in rats (plasma, LC/MS/MS)
# Assay type: in vivo, Sprague-Dawley rats
# measurementContext: male, Sprague-Dawley, rat, plasma, po, 16.5 g/kg, GQD-GC group (GQD without Gan-Cao): rats, oral 16.5 g/kg, plasma; read-out: AUClast
# Source text: Male Sprague-Dawley rats (220–250 g) were used for PK study, and the details were described in Supplemental Data. All procedures were in accordance with the National Institutes of Health Guide for the Care and Use of Laboratory Animals. […] A Finnigan TSQ Quantum triple quadrupole mass spectrometer was connected to a Surveyor HPLC via ESI interface (ThermoFisher). […] Analytes were detected in the selected reaction monitoring (SRM) mode. […]
measuredEndpoint: log10(AUC(0-t)) (log10 of the value in ng·h/mL)
Annotation: log10 of AUC(0-t), ng·h/mL basis.

Look over these answered cases.
Q) Bench note: what log10(AUC(0-t)) did COc1ccc(C2=CC(=O)OC2Cc2ccc(O)cc2)c(OC2OC(CO)C(O)C(O)C2O)c1 [Compound 41, (4S)-puerol B 2″-O-glucopyranoside] show?
A) 1.28

Q) log10(AUC(0-t)) for COc1ccc(-c2coc3cc(O[C@@H]4O[C@H](CO)[C@@H](O)[C@H](O)[C@H]4O)ccc3c2=O)cc1 [Compound 39, ononin] ?
A) 2.27

Q) Find the recorded log10(AUC(0-t)) belonging to COc1cc2c(cc1OC)-c1cc3ccc4c(c3c[n+]1CC2)OCO4 [Compound 22, epiberberine] and report it.
A) 1.42

Turning to the following molecule.
Q) Give its log10(AUC(0-t)) value. Item: O=C(O)[C@H]1O[C@@H](Oc2cc3oc(-c4ccccc4)cc(=O)c3c(O)c2O)[C@H](O)[C@@H](O)[C@@H]1O [Compound 17, baicalin]
A) 4.60
